tested on: S1P1 receptor; assay: Therapeutic index, ratio of TC50 for HLF cells to EC50 for S1P1 receptor; assay type: cell-based; conditions: human, read-out: TI

- COMPOUND: "CCCCCCCCOc1ccc(CCC2(C(N)=O)COC(=O)N2)cc1 (centres undefined)"
  SYSTEM TESTED: "S1P1 receptor"
  selectivity ratio: 42.6
- COMPOUND: "NC(=O)C1(CCc2ccc(OCCCc3ccccc3)cc2)COC(=O)N1 (centres undefined)"
  SYSTEM TESTED: "S1P1 receptor"
  selectivity ratio: 7.28
- COMPOUND: "NC(=O)C1(CCc2ccc(OCc3ccc(Cl)cc3)cc2)COC(=O)N1 (centres undefined)"
  SYSTEM TESTED: "S1P1 receptor"
  selectivity ratio: 25.4
- COMPOUND: "CC(C)(C)c1ccc(COc2ccc(CCC3(C(N)=O)COC(=O)N3)cc2)cc1 (centres undefined)"
  SYSTEM TESTED: "S1P1 receptor"
  selectivity ratio: 9.35

* * *

// values below are reported CC50
experiment: Cytotoxicity against HLF cells; type: cell-based; settings: human, read-out: TC50 (the source's name)

- COMPOUND: "NC(=O)C1(CCc2ccc(OCCCc3ccccc3)cc2)COC(=O)N1 (stereo not given)"
  CC50 (µM): 26.4
- COMPOUND: "NC(=O)C1(CCc2ccc(OCc3ccc(Cl)cc3)cc2)COC(=O)N1 (stereo not given)"
  CC50 (µM): 27.9
- COMPOUND: "CC(C)(C)c1ccc(COc2ccc(CCC3(C(N)=O)COC(=O)N3)cc2)cc1 (stereo not given)"
  CC50 (µM): 25.4
- COMPOUND: "CCCCCCCCOc1ccc(CCC2(C(N)=O)COC(=O)N2)cc1 (stereo not given)"
  CC50 (µM): 121
- COMPOUND: "CCCCCCCCc1ccc(CCC(N)(CO)CO)cc1.Cl [FINGOLIMOD HYDROCHLORIDE]"
  CC50 (µM): 3.15

* * *

biological target: Sphingosine 1-phosphate receptor 1 (Homo sapiens, UniProt P21453); experiment: Agonist activity at EGFP-tagged S1P1 receptor expressed in human […] cells assessed as receptor internalization in endosomes after 60 mins; format: functional, cell-based; conditions: read-out: EC50
Sequence (P21453 whole entry): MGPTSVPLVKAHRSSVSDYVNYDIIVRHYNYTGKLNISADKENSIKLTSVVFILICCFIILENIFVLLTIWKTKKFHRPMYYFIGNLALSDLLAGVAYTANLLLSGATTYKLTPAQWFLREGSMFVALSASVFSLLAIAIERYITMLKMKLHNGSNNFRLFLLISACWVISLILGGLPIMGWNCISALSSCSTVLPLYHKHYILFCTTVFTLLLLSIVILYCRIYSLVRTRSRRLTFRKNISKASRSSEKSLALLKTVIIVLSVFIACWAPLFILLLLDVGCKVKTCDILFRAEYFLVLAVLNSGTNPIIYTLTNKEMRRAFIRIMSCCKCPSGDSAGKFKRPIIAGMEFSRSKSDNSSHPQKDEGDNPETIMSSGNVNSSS
Readings of EC50 for the listed compounds

- COMPOUND: "NC(=O)C1(CCc2ccc(OCc3ccc(Cl)cc3)cc2)COC(=O)N1 (stereo not given)"
  SYSTEM TESTED: "Sphingosine 1-phosphate receptor 1 (Homo sapiens, UniProt P21453)"
  EC50: "1100 nM"
- COMPOUND: "CCCCCCCCOc1ccc(CCC2(C(N)=O)COC(=O)N2)cc1 (stereo not given)"
  SYSTEM TESTED: "Sphingosine 1-phosphate receptor 1 (Homo sapiens, UniProt P21453)"
  EC50: "2840 nM"
- COMPOUND: "CC(C)(C)c1ccc(COc2ccc(CCC3(C(N)=O)COC(=O)N3)cc2)cc1 (stereo not given)"
  SYSTEM TESTED: "Sphingosine 1-phosphate receptor 1 (Homo sapiens, UniProt P21453)"
  EC50: "2720 nM"
- COMPOUND: "NC(=O)C1(CCc2ccc(OCCCc3ccccc3)cc2)COC(=O)N1 (stereo not given)"
  SYSTEM TESTED: "Sphingosine 1-phosphate receptor 1 (Homo sapiens, UniProt P21453)"
  EC50: "3630 nM"
- COMPOUND: "NC(=O)C1(CCc2ccc(OCc3ccccc3Cl)cc2)COC(=O)N1 (stereo not given)"
  SYSTEM TESTED: "Sphingosine 1-phosphate receptor 1 (Homo sapiens, UniProt P21453)"
  EC50: "> 100000 nM"
